Value source: the supplement of paper PMC4862054

# Tested on: CAL-120
# assay remarks: normalised viability (% of control), CellTiter-Blue; higher = more viable cells (about 100 = DMSO control)
# condition label: 10000 nM; incubation time: 72 h
endpoint: normalised viability (%)
Answers are plain numbers, in %.

The examples below pair each entry with its known result.
| molecule | uom | assay value |
| --- | --- | --- |
| Cc1sc2c(c1C)C(c1ccc(Cl)cc1)=N[C@@H](CC(=O)OC(C)(C)C)c1nnc(C)n1-2 [(+)JQ1] | % | 49.2 |
| Nc1ncn([C@@H]2O[C@H](CO)[C@@H](O)[C@H]2O)c(=O)n1 | % | 60.9 |

Next:
// fetch normalised viability given entry Cn1cc(C2=Nc3cc(NC(=O)C(N)C4CCCCC4)cc4c3C2=CNNC4=O)cn1 (stereo not drawn) 27
